Cited source: patent US20250236657A1

Biological target: AAV vector (AAV5-EGFP), adeno-associated virus serotype 5 (adeno-associated virus serotype 5 (AAV5))
Assay: ELISA, AAV5-EGFP coated, culture supernatant, anti-6His, A450
Recorded Binding activity for AAV5 (vs AVR10s) (ratio (AVR10s = 1)) by entry
Quick one: just the number, no unit, thanks!

>>> value_measured("AVR10s_A330W (receptor) MGSAGESDQITLPKNEVQLNWYVLQEPPKGETSTYDWQLITHPRDYSGEMEGEHSQILKLSNLTPGLYEFKAVVEGQNAHSEGYVNVTVEPEPRKNRPPIAIVSPQFQEISLPTTSTVIDGSQSTDDDKIVQYHWEELKGPLREEKISEDTAILKLSKLVPGNYTFRLTVVDSDGATDSTTANLTVNKAVDHHHHHH")
1.46

Consider the additional binder presented here.
[ask] # Binding activity for AAV5 (vs AVR10s) (ratio (AVR10s = 1)) lookup, item AVR10s_V332Y (receptor) MGSAGESDQITLPKNEVQLNAYYLQEPPKGETSTYDWQLITHPRDYSGEMEGEHSQILKLSNLTPGLYEFKAVVEGQNAHSEGYVNVTVEPEPRKNRPPIAIVSPQFQEISLPTTSTVIDGSQSTDDDKIVQYHWEELKGPLREEKISEDTAILKLSKLVPGNYTFRLTVVDSDGATDSTTANLTVNKAVDHHHHHH
[reply] 1.5
